# system.under.test: EGFRΔ19del/T790M/C797S (Homo sapiens, UniProt P00533, T790M/C797S, form not given)
# Sequence (P00533 with tags, fused parts or gaps DEL746-750/T790M/C797S, form open): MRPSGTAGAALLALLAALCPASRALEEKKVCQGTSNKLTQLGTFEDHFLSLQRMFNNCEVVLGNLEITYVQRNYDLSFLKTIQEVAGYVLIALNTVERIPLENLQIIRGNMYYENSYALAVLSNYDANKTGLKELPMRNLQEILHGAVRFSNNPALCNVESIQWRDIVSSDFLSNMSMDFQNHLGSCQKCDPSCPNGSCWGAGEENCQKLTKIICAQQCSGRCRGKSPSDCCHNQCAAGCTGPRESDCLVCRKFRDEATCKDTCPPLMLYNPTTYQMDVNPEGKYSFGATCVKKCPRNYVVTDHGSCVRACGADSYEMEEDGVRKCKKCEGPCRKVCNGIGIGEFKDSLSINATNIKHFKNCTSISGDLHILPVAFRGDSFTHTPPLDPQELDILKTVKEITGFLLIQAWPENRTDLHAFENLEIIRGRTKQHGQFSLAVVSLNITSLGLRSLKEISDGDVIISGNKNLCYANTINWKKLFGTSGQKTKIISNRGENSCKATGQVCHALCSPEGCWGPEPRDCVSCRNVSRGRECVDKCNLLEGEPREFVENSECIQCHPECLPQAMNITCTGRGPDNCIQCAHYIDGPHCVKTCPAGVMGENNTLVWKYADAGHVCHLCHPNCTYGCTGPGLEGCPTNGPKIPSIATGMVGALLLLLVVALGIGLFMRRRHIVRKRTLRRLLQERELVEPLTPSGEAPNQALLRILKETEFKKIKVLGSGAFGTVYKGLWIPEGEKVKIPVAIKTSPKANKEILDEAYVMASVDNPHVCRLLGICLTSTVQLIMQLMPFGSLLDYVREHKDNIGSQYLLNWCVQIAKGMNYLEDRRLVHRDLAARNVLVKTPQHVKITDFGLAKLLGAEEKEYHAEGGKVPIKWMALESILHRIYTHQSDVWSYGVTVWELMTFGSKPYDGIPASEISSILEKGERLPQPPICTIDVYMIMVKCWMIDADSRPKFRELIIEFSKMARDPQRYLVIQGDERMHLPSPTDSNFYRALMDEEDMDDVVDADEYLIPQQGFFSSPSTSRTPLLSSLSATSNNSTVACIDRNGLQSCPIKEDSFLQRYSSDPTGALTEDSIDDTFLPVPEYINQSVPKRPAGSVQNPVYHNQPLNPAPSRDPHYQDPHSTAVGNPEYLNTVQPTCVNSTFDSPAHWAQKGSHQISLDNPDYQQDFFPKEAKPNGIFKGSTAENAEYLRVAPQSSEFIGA
# test.description: EGFR Δ19del/T790M/C797S kinase test (mobility variation analysis, Caliper EZ Reader)
# experimental.context: kinase enzymatic activity, Table 1
recorded.metric: IC50 (nM)

- molecule: "CCc1cc(Nc2ncc(Cl)c(Nc3ccc(-c4cnc(OC)nc4)cc3P(C)(C)=O)n2)c(OC)cc1N1CCC(N2CCN(C)CC2)CC1 [Compound 25]"
  reported.measurement: 0.4
- molecule: "CCc1cc(Nc2ncc(Br)c(Nc3ccc(-c4ccccc4C)cc3P(C)(C)=O)n2)c(OC)cc1N1CCC(N2CCOCC2)CC1 [Compound K-049]"
  reported.measurement: 0.8
- molecule: "CCc1cc(Nc2ncc(Br)c(Nc3ccc(-c4ccccc4F)cc3P(C)(C)=O)n2)c(OC)cc1N1CCC(N2CCOCC2)CC1 [Compound K-048]"
  reported.measurement: 1
- molecule: "CCc1cc(Nc2ncc(Br)c(Nc3ccc(-c4cnn(C)n4)cc3P(C)(C)=O)n2)c(OC)cc1N1CCC(N2CCN(C)CC2)CC1 [Compound 8]"
  reported.measurement: 0.4
- molecule: "COc1cc(Nc2ncc(Br)c(Nc3ccc(-c4cnccn4)cc3P(C)(C)=O)n2)c(C)cc1N1CCC(N2CCN(C)CC2)CC1 [Compound K-017]"
  reported.measurement: 0.5
- molecule: "CCc1cc(Nc2ncc(Br)c(Nc3ccc(-c4cnccn4)cc3P(C)(C)=O)n2)c(OC)cc1N1CCC(N2CCN(C)CC2)CC1 [Compound 78]"
  reported.measurement: 0.2
- molecule: "CCc1cc(Nc2ncc(Cl)c(Nc3ccc(-c4cccc5ocnc45)cc3P(C)(C)=O)n2)c(OC)cc1N1CCC(N2CCN(C)CC2)CC1 [Compound K-052]"
  reported.measurement: 1.6
- molecule: "COc1cc(Nc2ncc(Br)c(Nc3ccc(-c4nccs4)cc3P(C)(C)=O)n2)c(C)cc1N1CCOCC1 [Compound K-024]"
  reported.measurement: 0.3
- molecule: "CCc1cc(Nc2ncc(Cl)c(Nc3ccc(-c4ccccc4)cc3P(C)(C)=O)n2)c(OC)cc1N1CCC(N2CCN(C)CC2)CC1 [Compound 2]"
  reported.measurement: 0.7
- molecule: "CCc1cc(Nc2ncc(Br)c(Nc3ccc(-c4cnc5c(ccn5C)c4)cc3P(C)(C)=O)n2)c(OC)cc1N1CCC(N2CCN(C)CC2)CC1 [Compound 55]"
  reported.measurement: 1.5
- molecule: "COc1cc(Nc2ncc(Br)c(Nc3ccc(-c4nccs4)cc3P(C)(C)=O)n2)c(C)cc1N1CCC(N2CCN(C)CC2)CC1 [Compound K-019]"
  reported.measurement: 0.2
- molecule: "COc1cnn(-c2ccc(Nc3nc(Nc4cc(OC)c(N5CCC(N6CCN(C)CC6)CC5)cc4C)ncc3Br)c(P(C)(C)=O)c2)c1 [Compound K-018]"
  reported.measurement: 0.2
- molecule: "COc1cnn(-c2ccc(Nc3nc(Nc4cc(C)c(N5CCN(C6CCCC6)CC5)cc4OC)ncc3Br)c(P(C)(C)=O)c2)c1 [Compound K-089]"
  reported.measurement: 0.3
- molecule: "COc1cc(N2CCN(C)CC2)c(C)cc1Nc1ncc(Br)c(Nc2ccc(-c3nccs3)cc2P(C)(C)=O)n1 [Compound K-029]"
  reported.measurement: 0.3
- molecule: "CCc1cc(Nc2ncc(Br)c(Nc3ccc(-c4ccc(C)nn4)cc3P(C)(C)=O)n2)c(OC)cc1N1CCC(N2CCN(C)CC2)CC1 [Compound 33]"
  reported.measurement: 0.3

Hey, just so you know, these numbers are from patent US20220402948A1.
